# target: Platelet-activating factor acetylhydrolase 2, cytoplasmic (Mus musculus) (UniProt Q8VDG7)
# Sequence (Q8VDG7 whole entry, looked up): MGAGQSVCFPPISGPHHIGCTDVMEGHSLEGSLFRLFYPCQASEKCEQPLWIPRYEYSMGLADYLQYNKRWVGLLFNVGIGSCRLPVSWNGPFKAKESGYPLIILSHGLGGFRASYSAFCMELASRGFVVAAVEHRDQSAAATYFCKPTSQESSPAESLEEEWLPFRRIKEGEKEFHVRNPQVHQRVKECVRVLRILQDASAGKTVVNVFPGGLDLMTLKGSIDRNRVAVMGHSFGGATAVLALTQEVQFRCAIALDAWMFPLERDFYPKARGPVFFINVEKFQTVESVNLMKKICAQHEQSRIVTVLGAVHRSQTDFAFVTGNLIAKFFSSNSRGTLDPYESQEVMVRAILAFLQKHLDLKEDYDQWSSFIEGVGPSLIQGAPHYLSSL
# assay_name: competitive ABPP of PAFAH2 versus anti-target hydrolases – cell lysate, fluorescence, gel-based ABPP, BW5147 T-cell proteome, powder samples, late-stage follow-up (AID 504513);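 further: 0% = DMSO-only band intensity and 100% = blank gel background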
# test_parameters: FP-Rh gel ABPP, PAFAH2, inhibition, at 0.02 µM, stronger effect = higher value
Exercise: for every item that follows, state its recorded inhibition.

`O=C(N1CCCC1)n1ncc(-c2ccc(Oc3ccccc3)cc2)n1` yielded inhibition of 100%

`O=C(N1CCCC1)n1ncc(-c2ccc(OC(F)(F)F)cc2)n1` yielded inhibition of 25%

`O=C(N1CCOCC1)n1ncc(-c2ccccc2)n1` yielded inhibition of 25%

`O=C(N1CCCC1)n1ncc(-c2ccccc2)n1` yielded inhibition of 75%

`O=C(N(c1ccccc1)c1ccccc1)n1ccnn1` yielded inhibition of 0%

`COc1ccc2cc(-c3cnn(C(=O)N4CCCC4)n3)ccc2c1` yielded inhibition of 0%

`C=CCN(CC=C)C(=O)n1ccnn1` yielded inhibition of 0%

`CCN(CC)C(=O)n1ccnn1` yielded inhibition of 0%

`CN1CCN(C(=O)n2ccnn2)CC1` yielded inhibition of 0%

`O=C(n1ccnn1)n1c2ccccc2c2ccccc21` yielded inhibition of 0%

`O=C(N1CCCC1)n1ccnn1` yielded inhibition of 0%

`O=C(N1CCOCC1)n1ccnn1` yielded inhibition of 0%

`CN(C(=O)n1ccnn1)c1ccccc1` yielded inhibition of 0%

`O=C(N1CCOCC1)n1ncc(C(O)(c2ccccc2)c2ccccc2)n1` yielded inhibition of 0%

---

Exercise: for every item that follows, state its recorded inhibition.
# target: UniProt Q8VDG7
# assay_name: competitive ABPP of PAFAH2 versus anti-target hydrolases – cell lysate, fluorescence, gel-based ABPP, BW5147 T-cell proteome, powder samples, late-stage follow-up (AID 504513);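 further: 0% = DMSO-only band intensity and 100% = blank gel background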
# test_parameters: FP-Rh gel ABPP, PAFAH2, inhibition, at 0.2 µM, stronger effect = higher value
Answer in %, number only, no unit symbol.

`O=C(N1CCOCC1)n1ncc(-c2ccccc2)n1` yielded inhibition of 50

`O=C(N1CCCC1)n1ccnn1` yielded inhibition of 0

`C=CCN(CC=C)C(=O)n1ccnn1` yielded inhibition of 0

`O=C(N1CCCCC1)n1ccnn1` yielded inhibition of 0

`CN(C)C(=O)n1ccnn1` yielded inhibition of 0

`CN(C(=O)n1ccnn1)c1ccccc1` yielded inhibition of 0

`O=C(N1CCCC1)n1ncc(C(O)(c2ccccc2)c2ccccc2)n1` yielded inhibition of 100

`CN1CCN(C(=O)n2ccnn2)CC1` yielded inhibition of 0

---

# System: APEH
# assay_name: competitive ABPP of PAFAH2 versus anti-target hydrolases – cell lysate, fluorescence, gel-based ABPP, BW5147 T-cell proteome, powder samples, late-stage follow-up (AID 504513);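 further: 0% = DMSO-only band intensity and 100% = blank gel background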
# test_parameters: BW5147 mouse T-cell proteome, FP-Rh gel ABPP, inhibition, at 0.2 µM, stronger effect = higher value
Exercise: for every item that follows, state its recorded inhibition.
Answer in %, number only, no unit symbol.

`O=C(N1CCOCC1)n1ncc(-c2ccccc2)n1` yielded inhibition of 25

`O=C(N1CCCC1)n1ncc(-c2ccc(-c3ccccc3)cc2)n1` yielded inhibition of 0

`O=C(N1CCCC1)n1ccnn1` yielded inhibition of 0

`O=C(N1CCOCC1)n1ncc(C(O)(c2ccccc2)c2ccccc2)n1` yielded inhibition of 0

`CN(C(=O)n1ccnn1)c1ccccc1` yielded inhibition of 0

`O=C(N1CCCCC1)n1ccnn1` yielded inhibition of 0

`O=C(N1CCCC1)n1ncc(-c2ccc(OC(F)(F)F)cc2)n1` yielded inhibition of 100

---

# Test system: LYPLA1
# assay_name: competitive ABPP of PAFAH2 versus anti-target hydrolases – cell lysate, fluorescence, gel-based ABPP, BW5147 T-cell proteome, powder samples, late-stage follow-up (AID 504513);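 further: 0% = DMSO-only band intensity and 100% = blank gel background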
# test_parameters: BW5147 mouse T-cell proteome, FP-Rh gel ABPP, at 1 µM, stronger effect = higher value
Active and inactive are the calls of the source.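 Rule for the calls: active = PAFAH2 inhibition at least 50% at 0.2 µM with under 50% on each related off-target enzyme; inactive = the rest, including PAFAH2 hits that also hit off-targets.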
Exercise: for every item that follows, state its recorded inhibition.

`CCN(CC)C(=O)n1ccnn1` yielded inhibition of 0% (inactive)

`O=C(N1CCCC1)n1ncc(-c2ccc(OC(F)(F)F)cc2)n1` yielded inhibition of 0% (inactive)

`O=C(N1CCOCC1)n1ccnn1` yielded inhibition of 0% (inactive)

`O=C(N1CCCC1)n1ncc(-c2ccc(Oc3ccccc3)cc2)n1` yielded inhibition of 0% (inactive)

`O=C(N1CCCC1)n1ncc(C(O)(c2ccccc2)c2ccccc2)n1` yielded inhibition of 0% (inactive)

`O=C(N1CCCCC1)n1ccnn1` yielded inhibition of 0% (inactive)

`COc1ccc2cc(-c3cnn(C(=O)N4CCCC4)n3)ccc2c1` yielded inhibition of 0% (inactive)

`O=C(n1ccnn1)n1c2ccccc2c2ccccc21` yielded inhibition of 0% (inactive)

`O=C(N1CCCC1)n1ncc(-c2ccccc2)n1` yielded inhibition of 0% (inactive)

`O=C(N(c1ccccc1)c1ccccc1)n1ccnn1` yielded inhibition of 0% (inactive)

`O=C(N1CCOCC1)n1ncc(-c2cc(F)cc(F)c2)n1` yielded inhibition of 0% (inactive)

`O=C(N1CCOCC1)n1ncc(C(O)(c2ccccc2)c2ccccc2)n1` yielded inhibition of 0% (inactive)

`O=C(N1CCOCC1)n1ncc(-c2ccc(OC(F)(F)F)cc2)n1` yielded inhibition of 0% (inactive)

---

Exercise: for every item that follows, state its recorded inhibition.
# Test system: APEH
# assay_name: competitive ABPP of PAFAH2 versus anti-target hydrolases – cell lysate, fluorescence, gel-based ABPP, BW5147 T-cell proteome, powder samples, late-stage follow-up (AID 504513);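 further: 0% = DMSO-only band intensity and 100% = blank gel background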
# test_parameters: BW5147 mouse T-cell proteome, FP-Rh gel ABPP, inhibition, at 0.2 µM, stronger effect = higher value
Answer in %, number only, no unit symbol.

`O=C(N1CCOCC1)n1ccnn1` yielded inhibition of 0

`COc1ccc2cc(-c3cnn(C(=O)N4CCCC4)n3)ccc2c1` yielded inhibition of 25

`O=C(N1CCOCC1)n1ncc(-c2ccc(OC(F)(F)F)cc2)n1` yielded inhibition of 0

`CN(C)C(=O)n1ccnn1` yielded inhibition of 0

`O=C(n1ccnn1)n1c2ccccc2c2ccccc21` yielded inhibition of 0

`O=C(N1CCCC1)n1ncc(C(O)(c2ccccc2)c2ccccc2)n1` yielded inhibition of 100

`CN1CCN(C(=O)n2ccnn2)CC1` yielded inhibition of 0

---

# System: ESD
# assay_name: competitive ABPP of PAFAH2 versus anti-target hydrolases – cell lysate, fluorescence, gel-based ABPP, BW5147 T-cell proteome, powder samples, late-stage follow-up (AID 504513);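 further: 0% = DMSO-only band intensity and 100% = blank gel background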
# test_parameters: BW5147 mouse T-cell proteome, FP-Rh gel ABPP, inhibition, at 0.02 µM, stronger effect = higher value
reported_metric: inhibition
Remember to put the unit after the number in your answer.

`O=C(N1CCCC1)n1ncc(-c2ccc(-c3ccccc3)cc2)n1` yielded inhibition of 0%

`O=C(n1ccnn1)n1c2ccccc2c2ccccc21` yielded inhibition of 0%

`COc1ccc2cc(-c3cnn(C(=O)N4CCCC4)n3)ccc2c1` yielded inhibition of 0%

`C=CCN(CC=C)C(=O)n1ccnn1` yielded inhibition of 0%

`O=C(N1CCCC1)n1ncc(-c2ccc(Oc3ccccc3)cc2)n1` yielded inhibition of 0%

`O=C(N1CCCC1)n1ncc(-c2ccccc2)n1` yielded inhibition of 0%

`O=C(N1CCCCC1)n1ccnn1` yielded inhibition of 0%

`O=C(N1CCOCC1)n1ncc(C(O)(c2ccccc2)c2ccccc2)n1` yielded inhibition of 0%

`O=C(N1CCCC1)n1ncc(C(O)(c2ccccc2)c2ccccc2)n1` yielded inhibition of 0%

`CCN(CC)C(=O)n1ccnn1` yielded inhibition of 0%

`CN1CCN(C(=O)n2ccnn2)CC1` yielded inhibition of 0%

`O=C(N(c1ccccc1)c1ccccc1)n1ccnn1` yielded inhibition of 0%

`CN(C)C(=O)n1ccnn1` yielded inhibition of 0%

FYI, the data here is from PubChem BioAssay AID504513.
